Hey, just so you know, these numbers are from patent US11760773B2.

Test: Comparative plasma PK of Compound 1 versus Int 1-4 in male CD-1 mice (study b)
Format: in vivo
Settings: male, CD-1, mouse, iv, 11.6 mg/kg, after iv Compound 1 11.6 mg/kg, read-out: MRT0-inf
Counter-ions that a name gives are not always drawn.
The entries below come with measured MRT inf values attached.
Lab note: write values as number then unit, every time.

Consider the reported MRT inf for these compounds:
[
  {
    "compound": "COc1cc(OC)c2oc(COC(=O)Nc3ccn([C@@H]4O[C@H](CO)[C@@H](O)C4(F)F)c(=O)n3)cc2c1",
    "MRT inf": "40.4 min"
  },
  {
    "compound": "COc1cc(OC)c2oc(COC(=O)Nc3ccn([C@@H]4O[C@H](COP(=O)(O)O)[C@@H](O)C4(F)F)c(=O)n3)cc2c1 [Compound 1, ammonium salt]",
    "MRT inf": "0.654 min"
  }
]

Consider now this further compound.
Which value of MRT inf has been reported for Nc1ccn([C@@H]2O[C@H](CO)[C@@H](O)C2(F)F)c(=O)n1 in the records?
84.6 min

---

Test: Compound 1 and gemcitabine plasma PK in the male cynomolgus monkey (study h)
Assay type: in vivo
Conditions: plasma, after iv gemcitabine 2.28 mg/kg, read-out: AUC0-inf
endpoint_name: AUC(0-inf) (ng·h/mL)
Give the value in ng·h/mL but do not write ng·h/mL after it.

# query: AUC(0-inf) of entry Nc1ccn([C@@H]2O[C@H](CO)[C@@H](O)C2(F)F)c(=O)n1
165

---

Assay: Int 1-4 plasma PK in the male cynomolgus monkey (study f)
Format: in vivo
Conditions: after iv Int 1-4 10 mg/kg (study f)
endpoint_name: AUC(0-t)

Please give the measured AUC(0-t) for this compound: COc1cc(OC)c2oc(COC(=O)Nc3ccn([C@@H]4O[C@H](CO)[C@@H](O)C4(F)F)c(=O)n3)cc2c1
17400 ng·h/mL

---

Experiment: Comparative dog plasma PK of Int 1-4 versus gemcitabine (study k)
Format: in vivo
Conditions: male beagle dog, after iv Int 1-4 5 mg/kg (study k), read-out: Vdss
endpoint_name: Vd (L/kg)
Enter your answer as a number in L/kg; do not include the unit.

So what does the record say about Vd for COc1cc(OC)c2oc(COC(=O)Nc3ccn([C@@H]4O[C@H](CO)[C@@H](O)C4(F)F)c(=O)n3)cc2c1 ?
0.23

---

Experiment: Int 1-4 plasma PK in the male cynomolgus monkey (study f)
Type: in vivo
Settings: after iv Int 1-4 5 mg/kg (study f), read-out: Vdss
endpoint_name: Vd (L/kg)
Numbers only; they are read as L/kg.

[
  {
    "molecule": "COc1cc(OC)c2oc(COC(=O)Nc3ccn([C@@H]4O[C@H](CO)[C@@H](O)C4(F)F)c(=O)n3)cc2c1 [Int 1-4]",
    "Vd [L/kg]": 0.301
  }
]

# input for lookup
Endpoint output: Vd of Nc1ccn([C@@H]2O[C@H](CO)[C@@H](O)C2(F)F)c(=O)n1 [Gemcitabine, gemcitabine] . Value?
0.11

---

Assay: Int 1-4 and gemcitabine comparative PK in male cynomolgus monkey (study g)
Type: in vivo
Settings: plasma, male cynomolgus monkey, after iv gemcitabine 2.65 mg/kg
Protocol: Objectives: to compare the plasma pharmacokinetics and stability of Int 1-4 versus gemcitabine in plasma following single intravenous infusion administration of Int 1-4 at 5 mg/kg and 10 mg/kg with equimolar gemcitabine at 2.65 mg/kg and 5.29 mg/kg in male cynomolgous monkeys PK measurements: compare PK parameters C0, CL, Vdss, Cmax, tmax, t1/2, AUC(0-t), AUC(0-inf), MRT(0-t), MRT(0-inf) for Int 1-4 with gemcitabine
endpoint_name: half-life (min)
# value in min; strip the unit string

// half-life lookup, key: Nc1ccn([C@@H]2O[C@H](CO)[C@@H](O)C2(F)F)c(=O)n1
1.2
